Biological target: SIRT1 (Homo sapiens)
Sequence (Q96EB6 whole entry): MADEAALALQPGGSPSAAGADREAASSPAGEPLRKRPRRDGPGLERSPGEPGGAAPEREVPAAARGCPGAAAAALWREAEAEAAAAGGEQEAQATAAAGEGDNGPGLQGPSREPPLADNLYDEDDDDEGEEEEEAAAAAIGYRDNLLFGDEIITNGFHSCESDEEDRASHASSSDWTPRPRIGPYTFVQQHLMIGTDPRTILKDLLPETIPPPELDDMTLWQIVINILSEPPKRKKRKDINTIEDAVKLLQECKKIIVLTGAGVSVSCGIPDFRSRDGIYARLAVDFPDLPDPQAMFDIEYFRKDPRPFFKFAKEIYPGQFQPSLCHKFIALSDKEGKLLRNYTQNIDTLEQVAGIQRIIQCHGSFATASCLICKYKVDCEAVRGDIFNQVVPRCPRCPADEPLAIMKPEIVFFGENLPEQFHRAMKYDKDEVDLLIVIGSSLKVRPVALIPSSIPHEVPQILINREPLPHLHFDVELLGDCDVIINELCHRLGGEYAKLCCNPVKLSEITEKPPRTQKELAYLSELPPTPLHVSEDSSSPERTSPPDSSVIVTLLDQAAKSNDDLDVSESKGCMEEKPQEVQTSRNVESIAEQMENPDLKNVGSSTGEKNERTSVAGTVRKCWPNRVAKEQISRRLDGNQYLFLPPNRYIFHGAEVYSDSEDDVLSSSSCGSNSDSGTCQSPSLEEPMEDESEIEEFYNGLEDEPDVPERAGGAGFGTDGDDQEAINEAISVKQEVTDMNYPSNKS
Assay: Trp mass spectrometry assay of SIRT1 activation
Type: biochemical
Settings: Trp mass spectrometry assay; concentration of test compound giving 150% activation of SIRT1
readout.label: Tryp AVG EC1.5 (μM)

Solved cases below.
| molecule | Tryp AVG EC1.5 (μM) |
| --- | --- |
| N#Cc1cccc(-c2ccc3c(n2)N(C(=O)Nc2cccnn2)[C@H]2CCCN3C2)c1 | B (B (EC1.5 1-25 μM)) |
| O=C(Nc1ccccn1)N1c2nc(-c3cccc(C(F)(F)F)n3)ccc2N2CC[C@H]1C2 | B (B (EC1.5 1-25 μM)) |
| N#Cc1cccc(-c2ccc3c(n2)N(C(=O)Nc2ccncn2)[C@H]2CCCN3C2)c1 | A (A (EC1.5<1 μM)) |
| O=C(Nc1cncc(F)c1)N1c2nc(-c3ccnc(N4CCC(C(F)(F)F)C4)c3)ccc2N2CC[C@H]1C2 (some centres unmarked) | A (A (EC1.5<1 μM)) |

Tryp AVG EC1.5 (μM) measured on O=C(Nc1cccnn1)N1c2nc(-c3cncc(C(F)(F)F)c3)ccc2N2CCC[C@H]1C2 = A (A (EC1.5<1 μM))

The origin of these recorded values is patent US9834558B2.
